- System: Neutrophil
- Method: Anti-inflammatory activity in human neutrophils assessed as inhibition of fMLP/CB-induced superoxide anion generation by measuring superoxide dismutase SOD-inhibitable ferricytochrome c reduction incubated for 5 mins before fMLP/CB stimulation for 3 mins by spectrophotometry
- Format: functional, cell-based
Catalogue of IC50 values

[
  {
    "Compound": "COc1cc([C@H]2OC[C@H]3[C@@H]2CO[C@@H]3c2ccc(O)c(OC)c2)ccc1O",
    "IC50": "1.3 µg/mL"
  },
  {
    "Compound": "C=C1CC[C@@H]2[C@](C)(CCC[C@@]2(C)C(=O)O)[C@H]1CC/C(C)=C\\C(=O)O",
    "IC50": "> 10 µg/mL"
  },
  {
    "Compound": "C=C1CC[C@H]2C(C)(C)C(=O)CC[C@]2(C)[C@H]1CC/C(C)=C/C(=O)O",
    "IC50": "> 10 µg/mL"
  },
  {
    "Compound": "C=C1CC[C@H]2[C@@](C)(COC=O)CCC[C@]2(C)[C@H]1CC/C(C)=C\\C(=O)O",
    "IC50": "> 10 µg/mL"
  },
  {
    "Compound": "O=C1C=CC2(O)CC(=O)OC2C1 (stereo not given)",
    "IC50": "> 10 µg/mL"
  }
]
